Origin of values: patent US11987586B1

The compounds listed here are annotated with their OX2R agonist activity (3 uM, %).
# study-system: human OX2 receptor (Homo sapiens)
# Construct: expressed in transfected cells
# test: Measurement of orexin type 2 receptor agonist activity (calcium fluorescence, Fluo-4, FDSS)
# Format: cell-based
# stated-conditions: 3 uM test compound; CHO cells expressing human OX2 receptor; DMSO = 0%, 10 nM orexin A (human) = 100%
measure: OX2R agonist activity (3 uM, %)

- CS(=O)(=O)N[C@@H]1Cn2c(cn(-c3noc4cc(F)c(F)c(-c5c(F)cccc5F)c34)c2=O)C1(F)F: 99
- CS(=O)(=O)N[C@@H]1Cn2c(cn(-c3noc4cc(C(F)(F)F)cc(-c5c(F)cccc5F)c34)c2=O)C1(F)F: 104
- CS(=O)(=O)N[C@@H]1CN2C(=O)N(c3noc4cccc(-c5ccccc5Cl)c34)CC[C@@H]2C1(F)F: 106
- CS(=O)(=O)N[C@@H]1CN2C(=O)N(c3noc4cc(F)cc(-c5c(F)cc(F)cc5F)c34)C[C@@H]2C1(F)F: 95

###

The molecules listed here are annotated with their OX2R agonist activity (3 uM, %).
# study-system: human OX2 receptor (Homo sapiens, UniProt O43614)
# Construct: expressed in transfected cells
# Sequence (O43614 1-444): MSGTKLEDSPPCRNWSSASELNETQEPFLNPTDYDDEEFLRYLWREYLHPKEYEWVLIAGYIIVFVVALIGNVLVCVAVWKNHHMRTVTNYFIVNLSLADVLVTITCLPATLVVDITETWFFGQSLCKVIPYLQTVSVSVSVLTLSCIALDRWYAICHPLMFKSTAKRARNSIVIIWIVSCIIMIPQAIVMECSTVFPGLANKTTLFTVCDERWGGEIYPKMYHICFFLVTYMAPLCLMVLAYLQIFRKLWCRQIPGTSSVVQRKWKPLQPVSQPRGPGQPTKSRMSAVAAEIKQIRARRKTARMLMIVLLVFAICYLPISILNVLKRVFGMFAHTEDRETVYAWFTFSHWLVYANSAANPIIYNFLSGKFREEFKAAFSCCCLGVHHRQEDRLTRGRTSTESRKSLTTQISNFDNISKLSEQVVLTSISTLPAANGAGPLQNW
# test: Measurement of orexin type 2 receptor agonist activity (calcium fluorescence, Fluo-4, FDSS)
# Type: cell-based
# stated-conditions: 3 uM test compound; CHO cells expressing human OX2 receptor; DMSO = 0%, 10 nM orexin A (human) = 100%
measure: OX2R agonist activity (3 uM, %)

• CCS(=O)(=O)N[C@H]1C[C@H]2CN(c3cnc4cccc(-c5c(F)cccc5F)n34)C(=O)N2C1 = 84%
• Cc1cc2onc(-n3cc4n(c3=O)C[C@@H](NS(C)(=O)=O)C4(F)F)c2c(-c2c(F)cc(F)cc2F)c1F = 101%
• CCS(=O)(=O)N[C@@H]1Cn2c(cn(-c3noc4cc(Cl)cc(-c5c(F)cc(F)cc5F)c34)c2=O)C1(F)F = 106%
• CCS(=O)(=O)N[C@@H]1CN2C(=O)N(c3noc4cccc(-c5sccc5C)c34)CC[C@@H]2C1(F)F = 106%
• CCS(=O)(=O)N[C@@H]1CN2C(=O)N(c3noc4cccc(-c5ncc(F)cc5F)c34)CC[C@@H]2C1(F)F = 108%
• CNS(=O)(=O)N[C@@H]1CN2C(=O)N(c3noc4cccc(-c5c(F)cccc5F)c34)C[C@@H]2C1(F)F = 104%
• CCS(=O)(=O)N[C@@H]1Cn2c(cn(-c3noc4cc(OC(F)F)cc(-c5c(F)cc(F)cc5F)c34)c2=O)C1(F)F = 109%

###

# study-system: human OX2 receptor (Homo sapiens, UniProt O43614)
# Construct: expressed in transfected cells
# test: Measurement of orexin type 2 receptor agonist activity (calcium fluorescence, Fluo-4, FDSS)
# Assay type: cell-based
# stated-conditions: 3 uM test compound; CHO cells expressing human OX2 receptor; DMSO = 0%, 10 nM orexin A (human) = 100%
The compounds listed here are annotated with their OX2R agonist activity (3 uM, %).
measure: OX2R agonist activity (3 uM, %)

* CCS(=O)(=O)N[C@@H]1CN2C(=O)N(c3noc4cccc(-c5c(F)cccc5F)c34)CC[C@@H]2C1(F)F | 114%
* O=C1N(c2noc3cccc(-c4c(F)cccc4F)c23)CC[C@H]2N1C[C@@H](NS(=O)(=O)C1CC1)C2(F)F | 105%
* CCOc1cc(-c2c(F)cccc2F)c2c(-n3cc4n(c3=O)C[C@@H](NS(C)(=O)=O)C4(F)F)noc2c1 | 92%
* Cc1cc(-c2c(F)cccc2F)c2c(N3C[C@H]4N(C[C@@H](NS(C)(=O)=O)C4(F)F)C3=O)noc2c1 | 97%

###

# study-system: human OX2 receptor (Homo sapiens, UniProt O43614)
# Construct: expressed in transfected cells
# Sequence (O43614 1-444): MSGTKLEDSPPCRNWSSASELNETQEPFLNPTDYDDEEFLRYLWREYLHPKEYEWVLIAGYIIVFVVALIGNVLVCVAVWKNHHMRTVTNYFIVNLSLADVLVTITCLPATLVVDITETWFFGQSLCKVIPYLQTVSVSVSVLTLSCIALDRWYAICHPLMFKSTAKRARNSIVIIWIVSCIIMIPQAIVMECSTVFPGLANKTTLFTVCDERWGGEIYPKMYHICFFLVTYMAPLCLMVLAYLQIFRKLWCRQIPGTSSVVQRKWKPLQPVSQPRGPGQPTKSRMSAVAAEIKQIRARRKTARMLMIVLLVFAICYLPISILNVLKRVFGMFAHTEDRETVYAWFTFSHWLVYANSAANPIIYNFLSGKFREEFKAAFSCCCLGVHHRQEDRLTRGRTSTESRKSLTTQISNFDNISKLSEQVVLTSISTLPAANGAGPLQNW
# test: Measurement of orexin type 2 receptor agonist activity (calcium fluorescence, Fluo-4, FDSS)
# Type: cell-based
# stated-conditions: 3 uM test compound; CHO cells expressing human OX2 receptor; DMSO = 0%, 10 nM orexin A (human) = 100%
measure: OX2R agonist activity (3 uM, %)

* O=C1N(c2noc3cc(F)c(F)c(-c4c(F)cccc4F)c23)CC[C@H]2N1C[C@@H](NS(=O)(=O)C1CC1)C2(F)F [Example 312] | 100
* CS(=O)(=O)N[C@@H]1C[C@H]2CN(c3noc4cccc(-c5c(F)cccc5F)c34)C(=O)[C@H]2C1 (relative stereo) [Example 337] | 79
* CS(=O)(=O)N[C@@H]1CN2C(=O)N(c3noc4cccc(-c5ccccc5)c34)CC[C@@H]2C1(F)F [Example 223] | 104
* CCS(=O)(=O)N[C@H]1C[C@H]2CN(c3noc4cccc(-c5c(F)cccc5F)c34)C(=O)N2C1 [Example 1] | 104
* CCS(=O)(=O)N[C@@H]1CN2C(=O)N(c3noc4cc(OC(F)F)cc(-c5c(F)cc(F)cc5F)c34)CC[C@@H]2C1(F)F [Example 303] | 103
* CCS(=O)(=O)N[C@@H]1Cn2c(cn(-c3noc4cc(COC)cc(-c5c(F)cccc5F)c34)c2=O)C1(F)F [Example 167] | 97
* CCS(=O)(=O)N[C@H]1Cc2cn(-c3nsc4nc(C)cc(-c5c(F)cccc5F)c34)c(=O)n2C1 [Example 152] | 92
* CS(=O)(=O)N[C@@H]1Cn2c(cn(-c3noc4cc(F)c(F)c(-c5c(F)cc(F)cc5F)c34)c2=O)C1(F)F [Example 135] | 100
* CS(=O)(=O)N[C@H]1C[C@H]2CCN(c3noc4cc(C(F)(F)F)cc(-c5c(F)cccc5F)c34)C(=O)N2C1 [Example 251] | 109
* CCS(=O)(=O)N[C@@H]1CN2C(=O)N(c3noc4cc(F)cc(-c5c(F)cc(F)cc5F)c34)CC[C@@H]2C1(F)F [Example 261] | 105
* O=c1n(-c2noc3cc(F)cc(-c4c(F)cc(F)cc4F)c23)cc2n1C[C@@H](NS(=O)(=O)CF)C2(F)F [Example 288] | 101
* CCS(=O)(=O)NC1CN2C(=O)N(c3noc4cccc(-c5c(F)cccc5F)c34)C[C@@H]2C1C (stereo in doubt) [Example 158] | 103
* CCS(=O)(=O)N[C@@H]1CN2C(=O)N(c3noc4cc(C)cc(-c5c(F)cc(F)cc5F)c34)C[C@@H]2C1(F)F [Example 153] | 96
* CCS(=O)(=O)N[C@@H]1CN2C(=O)N(c3noc4cccc(-c5ccccc5Cl)c34)CC[C@@H]2C1(F)F [Example 327] | 118

###

The compounds listed here are annotated with their OX2R agonist activity (3 uM, %).
# study-system: human OX2 receptor (Homo sapiens, UniProt O43614)
# Construct: expressed in transfected cells
# test: Measurement of orexin type 2 receptor agonist activity (calcium fluorescence, Fluo-4, FDSS)
# Type: cell-based
# stated-conditions: 3 uM test compound; CHO cells expressing human OX2 receptor; DMSO = 0%, 10 nM orexin A (human) = 100%
measure: OX2R agonist activity (3 uM, %)

• CCS(=O)(=O)N[C@@H]1CN2C(=O)N(c3noc4cc(COC)cc(-c5c(F)cc(F)cc5F)c34)CC[C@@H]2C1(F)F = 107
• O=c1n(-c2noc3ccc(F)c(-c4c(F)cc(F)cc4F)c23)cc2n1C[C@@H](NS(=O)(=O)CF)C2(F)F = 113
• Cc1cc(-c2c(F)cccc2F)c2c(N3C[C@H]4N(C[C@@H](NS(C)(=O)=O)C4(F)F)C3=O)noc2n1 = 108
• CS(=O)(=O)N[C@@H]1CN2C(=O)N(c3noc4cc(F)c(F)c(-c5c(F)cccc5F)c34)CC[C@@H]2C1(F)F = 96
• CCS(=O)(=O)N[C@@H]1Cn2c(cn(-c3noc4cc(F)c(F)c(-c5c(F)cc(F)cc5F)c34)c2=O)C1(F)F = 93
• CCS(=O)(=O)N[C@@H]1Cn2c(cn(-c3noc4cccc(-c5c(F)cc(F)cc5F)c34)c2=O)C1(F)F = 103
• CCS(=O)(=O)N[C@@H]1Cn2c(cn(-c3noc4nc(C)cc(-c5c(F)cccc5F)c34)c2=O)C1(F)F = 99
• CS(=O)(=O)N[C@@H]1Cn2c(cn(-c3noc4cc(Cl)c(F)c(-c5c(F)cccc5F)c34)c2=O)C1(F)F = 104
• CCOc1cc(-c2c(F)cc(F)cc2F)c2c(N3CC[C@H]4N(C[C@@H](NS(C)(=O)=O)C4(F)F)C3=O)noc2c1 = 104
• COCc1cc2onc(-n3cc4n(c3=O)C[C@@H](NS(C)(=O)=O)C4(F)F)c2c(-c2c(F)cccc2F)c1F = 93
• CCS(=O)(=O)NC1Cn2cc(-c3noc4cccc(-c5c(F)cccc5F)c34)c(=O)n2C1 (single isomer, unassigned) = 96
• CCc1cc(-c2c(F)cc(F)cc2F)c2c(-n3cc4n(c3=O)C[C@@H](NS(C)(=O)=O)C4(F)F)noc2n1 = 111
• CS(=O)(=O)N[C@@H]1CN2C(=O)N(c3noc4cc(F)c(F)c(-c5c(F)cc(F)cc5F)c34)CC[C@@H]2C1(F)F = 109
• CCS(=O)(=O)N[C@@H]1Cn2c(cn(-c3noc4cc(Cl)cc(-c5c(F)cccc5F)c34)c2=O)C1(F)F = 109
